Molecular target: T1, recombinant mouse TIGIT-Fc carrier-free protein (Mus musculus, UniProt A0A0B4J1G6)
T1 construct: T cell Ig and ITIM domain receptor (TIGIT), mouse; also called mTIGIT-Fc; mouse TIGIT recombinant protein; source: bought: Biolegend (Cat. No. 771808)
T1 sequence (P86176 29-148): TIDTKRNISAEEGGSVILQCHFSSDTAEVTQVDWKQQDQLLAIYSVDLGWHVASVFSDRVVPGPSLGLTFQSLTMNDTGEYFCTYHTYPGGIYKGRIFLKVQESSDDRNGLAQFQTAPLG
Experiment: SPR; Biacore T200; m/hTIGIT-Fc (10 µg/mL in 10 mM Na-acetate pH 4.0) immobilised on a CM5 chip; Nbs or scFv injected in two-fold dilutions from 200 nM, 10 µl/min, 25°C; HBS pH 7.4 (0.01 M HEPES, 0.15 M NaCl, 3 mM EDTA, 0.005% Tween 20); fit 1:1 binding with drift and RI2
Settings: both partners purified
Catalogue of kon values
Unit M⁻¹ s⁻¹ implied. Number only.

• anti-mTIGIT Nb 16972 (VHH, nanobody from an immunized llama; Cloned in pHen6 after PCR with primers A6E and PMCF; source: E. coli WK6, periplasmic extract, purified (Ni-NTA, SEC); not shown: His6, C-terminal, kept) VHH: QVQLQESGGGLVQTGESLRLSCAASSVSSITGMDWYRQAPGKQREWVATITRNNIAMYGASVKGRFTVSRDNAKNTWYLQMNSLKPEDTAVYYCTYRGNWGQGTQVTVSS = 7.46e+06
• anti-mTIGIT Nb 16966 (VHH, nanobody from an immunized llama; Cloned in pHen6 after PCR with primers A6E and PMCF; source: E. coli WK6, periplasmic extract, purified (Ni-NTA, SEC); not shown: His6, C-terminal, kept) VHH: QVQLQESGGGSVRPGESLRLSCAASSDSSITGMDWYRQAPGKQREWVATITRNNITIYGASVKGRFTVSRDNVKNTWYLQMNSLKPEDTAVYYCTYRGNWGQGTQVTVSS = 1.64e+07

Give kon for the following binder: anti-mTIGIT Nb 16988 (VHH, nanobody from an immunized llama; Cloned in pHen6 after PCR with primers A6E and PMCF; source: E. coli WK6, periplasmic extract, purified (Ni-NTA, SEC); not shown: His6, C-terminal, kept) VHH: QVQLQESGGGLVQAGGSLRLSCAASSVSSITGMDWYRQAPGKQREWVATITRNNIAMYGASVKGRFTVSRDDAKNTWYLQMNSLKPEDTAVYYCTYHGNWGQGTQVTVSS
7.06e+06

Give kon for the following binder: anti-mTIGIT Nb 16979 (VHH, nanobody from an immunized llama; Cloned in pHen6 after PCR with primers A6E and PMCF; source: E. coli WK6, periplasmic extract, purified (Ni-NTA, SEC); not shown: His6, C-terminal, kept) VHH: QVQLQESGGGLVQAGESLRLSCAASIIVSDNIMAWYRQSPGKQREIVALISSTGTINYVDSVKGRFTISRDNAKNTLNLQMTKLKPEDTAVYYCSGRTLRVYWGQGTQVTVSS
134000
